Reference source for all entries: PubChem BioAssay

# assayName: reversal of MRP1-mediated doxorubicin resistance, pilot screen, H69AR cells, doxorubicin co-treatment (AID 601)
# conditionDescription: H69AR cells + 2 uM doxorubicin, CellTiter-Glo, 72 h; at 10 µM; active compounds read high
property: differential viability (reversal) (%)
Write the number in % without appending the unit.

Solved entries:
molecule | property | resultUnits | reported
O=C(Nc1nccs1)c1cccc(NC(=O)C2CC2)c1 | differential viability (reversal) | % | 8.43
Cc1ccc(/C=c2\s/c(=C(/C#N)C(=O)N3CCCC3)n(Cc3ccco3)c2=O)s1 | differential viability (reversal) | % | 15.8
C[C@]12CC[C@@H]3c4ccc(OC(=O)c5ccccc5)cc4CC[C@H]3[C@@H]1CC[C@@H]2O | differential viability (reversal) | % | -9.02
Cc1cc(=O)[nH]c2c1cnn2Cc1ccccc1 | differential viability (reversal) | % | 5.01
CCOC(=O)N1CCN(C(=O)Nc2ccc3oc(C)nc3c2)CC1 | differential viability (reversal) | % | -0.96
C=C(C)Cn1c(CCNC(=O)CC)nc2ccccc21 | differential viability (reversal) | % | 12.7

State its differential viability (reversal): CN1CC=C2C(C#N)=C(N)C(C#N)(C#N)C(c3cccc(Cl)c3Cl)C2C1 (stereo unspecified)
1.02

State its differential viability (reversal): O=S1(=O)C=CC(Nc2cccc(Cl)c2)C1 (stereo unspecified)
-0.23

State its differential viability (reversal): Cc1cc(C)c2c(=O)[nH]c(=O)n(Cc3ccccc3)c2n1
10.9

State its differential viability (reversal): Cc1ccc(NC(=O)CC2C(=O)NC3CCCCC3N2C(=O)c2ccc(F)cc2)cc1C (stereo unspecified)
12.5

State its differential viability (reversal): NS(=O)(=O)c1cc2c(cc1C(F)(F)F)NCNS2(=O)=O
8.31
